Target: T1, PCSK9 D374Y mutant protein inserted with biotin receiving peptide BP15 and His-tag: PCSK9-D374Y-BP15-His6 (human, UniProt Q8NBP7 153-692; A8T644 31-152, biotin on the BP15 biotin receiving peptide)
T1 construct: also called PCSK9-Y; mutant PCSK9
Experiment: ELISA, biotin PCSK9-Y on streptavidin plate
The following binders are shown together with reported EC50 values.
Field: numeric (µg/mL). Do not append units.

Below are worked cases with known answers.
* h011-3195 (antibody, V domains shown) VH: QVQLVQSGAEVKKPGASVKVSCKASGYTFTGYTIHWVRQAPGQGLEWMGYINPSSTYTKFNQKFKDRVTMTRDTSISTAYMELSRLRSDDTAVYYCARERIFSNYWFFDVWGQGTTVTVSS VL: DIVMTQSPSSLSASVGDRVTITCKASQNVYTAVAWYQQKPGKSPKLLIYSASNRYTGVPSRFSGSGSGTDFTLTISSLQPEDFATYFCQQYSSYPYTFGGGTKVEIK | 0.0218
* h011-3070 (antibody, V domains shown) VH: QVQLVQSGAEVKKPGASVKVSCKASGYTFTGYTIHWVRQAPGQGLEWMGYINPSSTYTKFNQKFKDRVTMTRDTSISTAYMELSRLRSDDTAVYYCARENIYFNYWFFDRWGQGTTVTVSS VL: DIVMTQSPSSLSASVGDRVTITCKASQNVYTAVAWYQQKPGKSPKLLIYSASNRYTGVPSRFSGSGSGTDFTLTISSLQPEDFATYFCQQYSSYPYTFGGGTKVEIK | 0.0144
* h011-3190 (antibody, V domains shown) VH: QVQLVQSGAEVKKPGASVKVSCKASGYTFTGYTIHWVRQAPGQGLEWMGEINPSSTYTKFNQKFKDRVTMTRDTSISTAYMELSRLRSDDTAVYYCARERIYSNYWFFDVWGQGTTVTVSS VL: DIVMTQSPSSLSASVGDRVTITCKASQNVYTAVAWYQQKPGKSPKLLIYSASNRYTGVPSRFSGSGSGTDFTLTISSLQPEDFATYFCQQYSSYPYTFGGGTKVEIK | 0.00478

Reported EC50, binder humanized antibody h011-3 (antibody, V domains shown, h011_VH.1 with h011_VL.1B) VH: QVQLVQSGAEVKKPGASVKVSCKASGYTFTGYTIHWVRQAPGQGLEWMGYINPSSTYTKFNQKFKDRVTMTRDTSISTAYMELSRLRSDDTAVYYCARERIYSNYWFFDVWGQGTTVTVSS VL: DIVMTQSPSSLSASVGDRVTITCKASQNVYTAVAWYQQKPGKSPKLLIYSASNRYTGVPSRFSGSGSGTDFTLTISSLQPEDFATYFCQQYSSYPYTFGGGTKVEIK : ____ 1.78
